Some compounds, each annotated with its measured EC50.
TEST NAME: Binding affinity to egg yolk phosphotidylcholine liposomes assessed as induction of chloride ion efflux after 250 secs by fluorimetric analysis relative to lipid
Kindly answer with a numeric value in mol%, unit omitted.

- COMPOUND STRING: "C(#Cc1ccc(Cn2c[n+](Cc3ccc(C#Cc4ccccc4)cc3)c3ccccc32)cc1)c1ccccc1.O=S(=O)([N-]S(=O)(=O)C(F)(F)F)C(F)(F)F"
  EC50 (mol%): 5.8
- COMPOUND STRING: "C(#Cc1ccc(C[n+]2cn(Cc3cccc(Cn4c[n+](Cc5ccc(C#Cc6ccccc6)cc5)c5ccccc54)n3)c3ccccc32)cc1)c1ccccc1.O=S(=O)([O-])C(F)(F)F.O=S(=O)([O-])C(F)(F)F"
  EC50 (mol%): 0.46

Can you look up the measured EC50 of C(#Cc1ccc(C[n+]2cn(Cc3cccc(Cn4c[n+](Cc5ccc(C#Cc6ccccc6)cc5)c5ccccc54)n3)c3ccccc32)cc1)c1ccccc1.[Br-].[Br-] for me?
14

What do we get for C(#Cc1ccc(C[n+]2cn(-c3cccc(-n4c[n+](Cc5ccc(C#Cc6ccccc6)cc5)c5ccccc54)n3)c3ccccc32)cc1)c1ccccc1.O=S(=O)([O-])C(F)(F)F.O=S(=O)([O-])C(F)(F)F ?
12

What do we get for C(#Cc1ccc(C[n+]2cn(-c3cccc(-n4c[n+](Cc5ccc(C#Cc6ccccc6)cc5)c5ccccc54)n3)c3ccccc32)cc1)c1ccccc1.O=S(=O)([N-]S(=O)(=O)C(F)(F)F)C(F)(F)F.O=S(=O)([N-]S(=O)(=O)C(F)(F)F)C(F)(F)F ?
6.9
